# experimental_target: Brd4 bromodomain 1 (BRD4(1)) (Homo sapiens)
# assay_overview: Inhibition of tetra-acetylated histone H4 binding to Brd4 bromodomain 1 (TR-FRET)
# condition_context: tetra-acetylated histone H4 peptide, first bromodomain of Brd4
pIC50: −log10 of the molar value.
Recorded pIC50 for the following compounds

Query: pIC50; subject: Cc1noc(C)c1-c1cc(N)c2nc(C)n(CC3CC3)c2c1 [compound 75]
≥ 6.52

Query: pIC50; subject: Cc1noc(C)c1-c1cnc2[nH]c(=O)n([C@H](C)c3ccccc3)c2c1 [compound 218]
≥ 6.52

Query: pIC50; subject: Cc1noc(C)c1-c1cnc2nc(C)n(Cc3ccc(C#N)s3)c2c1 [compound 78]
≥ 6.52

Query: pIC50; subject: Cc1noc(C)c1-c1cnc2nc(N3CCCC3)n(Cc3ccccc3)c2c1 [compound 195]
≥ 6.52

Query: pIC50; subject: Cc1noc(C)c1-c1cnc2[nH]c(=O)n(CC3CCC3)c2c1 [compound 203]
≥ 6.52

###

# experimental_target: Brd4 bromodomain 1 (BRD4(1)) (Homo sapiens, UniProt O60885)
# Construct: made in house; host or cells: E. coli BL21(DE3)
# assay_overview: Inhibition of tetra-acetylated histone H4 binding to Brd4 bromodomain 1 (TR-FRET)
# condition_context: tetra-acetylated histone H4 peptide, first bromodomain of Brd4
pIC50: −log10 of the molar value.
Recorded pIC50 for the following molecules

- molecule: "Cc1noc(C)c1-c1cc(N2CC(O)C2)c2nc(C)n(Cc3ccccc3)c2c1"
  pIC50: "≥ 6.52"
- molecule: "Cc1noc(C)c1-c1cc(N)c2nc(NC3CCOCC3)n(Cc3ccccc3)c2c1"
  pIC50: "≥ 6.52"
- molecule: "CC(=O)Nc1cc(-c2c(C)noc2C)cc2c1[nH]c(=O)n2Cc1ccccc1"
  pIC50: "≥ 6.52"

Query: pIC50; subject: Cc1noc(C)c1-c1cnc2ccn(Cc3ccc(F)cc3)c2n1
≥ 6.52

Query: pIC50; subject: Cc1noc(C)c1-c1cc(N)c2c(c1)n(Cc1ccccc1)c(=O)n2C
≥ 6.52

Query: pIC50; subject: COc1ccc(Cn2c(=O)[nH]c3c(N)cc(-c4c(C)noc4C)cc32)cc1
≥ 6.52

Query: pIC50; subject: Cc1noc(C)c1-c1cnc2nc(NCCN3CCN(C)CC3)n(Cc3ccccc3)c2c1
≥ 6.52

###

# experimental_target: Brd4 bromodomain 1 (BRD4(1)) (Homo sapiens, UniProt O60885)
# assay_overview: Inhibition of tetra-acetylated histone H4 binding to Brd4 bromodomain 1 (TR-FRET)
# condition_context: tetra-acetylated histone H4 peptide, first bromodomain of Brd4
measurement_type: IC50

- query_smiles: "Cc1noc(C)c1-c1cc(N)c2oc(=O)n(Cc3ccccc3)c2c1"
  measurement_type: "IC50"
  experimental_value: "≤ 300 nM"
- query_smiles: "Cc1noc(C)c1-c1cnc2c([N+](=O)[O-])cn(Cc3ccccc3)c2c1"
  measurement_type: "IC50"
  experimental_value: "≤ 300 nM"
- query_smiles: "COc1ccc(Cn2c(C)nc3ncc(-c4c(C)noc4C)cc32)cc1"
  measurement_type: "IC50"
  experimental_value: "≤ 300 nM"

Query: IC50; subject: Cc1noc(C)c1-c1cnc2cnn(Cc3ccc(Cl)cc3)c2c1
≤ 300 nM

Query: IC50; subject: Cc1noc(C)c1-c1cnc2ncn(Cc3ccccn3)c2c1
3000 to 30000 nM
